Sourced from the supplement of paper PMC13380429

# System: Caco-2
# measurement_notes: cell viability relative to DMSO; higher = less toxic
# measurement_parameters: 72 h; 1000 nM
cell viability by entry:
Give just the number in %; leave the unit off.

[
  {
    "compound": "O=C(O)c1c2ccccc2cc2ccccc12",
    "outcome_measure": "cell viability",
    "test_value": 100
  },
  {
    "compound": "O=C(N[C@@H](Cc1c[nH]c2ccccc12)C(=O)O)c1ccc(Cl)cc1",
    "outcome_measure": "cell viability",
    "test_value": 100
  },
  {
    "compound": "CCc1cc(C(N)=S)ccn1 [ethionamide]",
    "outcome_measure": "cell viability",
    "test_value": 92.6
  },
  {
    "compound": "CC(C)(C)c1ccc(C(O)CCCN2CCC(C(O)(c3ccccc3)c3ccccc3)CC2)cc1 (stereo not drawn)",
    "outcome_measure": "cell viability",
    "test_value": 101
  }
]

## Input Send back Caco-2 cell viability of CC(Oc1c(Cl)cccc1Cl)C1=NCCN1 (stereo not drawn) only.
## Output 93.8

## Input Report measured cell viability on Caco-2; entry: N[C@H]1CCN(O)C1=O [HA-966-(S)-(-)]
## Output 96
